We begin with a simple list: items and their reported IC50.
Test system: Primary fibroblasts cultured from the lungs of healthy donors
Test: Fibroblast-to-myofibroblast transition (FMT), aSMA induction by TGFb, healthy donor fibroblasts
Assay type: cell-based, human
Settings: Homo sapiens, Fibroblast, 72 h, donor FB0054, Healthy, 1.25 ng/mL TGFb, read-out: LogM IC50 aSMA (converted)
quantity_measured: IC50 (nM)

{"substance_smiles": "N#Cc1cnc(Nc2cc(NC[C@H]3CNCCO3)c(C(F)(F)F)cn2)cn1", "experimental_value": 3160}
{"substance_smiles": "COc1cc2nc(-c3cc(F)ccc3O)nc(N[C@@H]3CNC[C@H]3C(C)(C)O)c2cc1OC", "experimental_value": 398}
{"substance_smiles": "NC(=O)Nc1cc(-c2cccc(F)c2)sc1C(=O)N[C@H]1CCCNC1", "experimental_value": 1260}
{"substance_smiles": "COc1cccc(OCCCN)c1-c1cc(Nc2cnc(C#N)cn2)n[nH]1", "experimental_value": 631}
